- assay_notes: MM1S cell viability effects, profiling panel, calcein-AM fluorescence, 48 h, basal (AID 1165);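 note: viability of MM1S multiple myeloma cells under basal unstimulated conditions; test concentration not given here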
- experimental_setup: higher = more signal
Recorded z-score, one value per entry.
Write the value as a bare number.

CC(CCN1CCc2nc(-c3ccccc3)c(-c3ccccc3)cc2C1)=NOC[C@@H](O)[C@H]1O[C@@H]2OC(C)(C)O[C@@H]2[C@H]1O: -2.72
Cc1cc2c(c(=O)o1)[C@@H](O)[C@H]1O[C@H]1C2=O: 0.65
O=C1[C@H]2[C@H]3[C@H](O)[C@H](O)CC(=NOC[C@@H](O)COCc4ccco4)[C@H]3CC[C@H]2C(=O)N1Cc1ccccc1: 0.455
CC(=O)OC[C@H]1O[C@@H](ON=C(C)CCN2CCCc3nc(C)c(C)cc32)[C@H](OC(C)=O)[C@@H](OC(C)=O)[C@@H]1OC(C)=O: -1.05
CO[C@H]1COC(=O)CC=C[C@H](C)COC(=O)[C@@H](C)NC(=O)CC=C[C@@H]1C: 0.735
CCc1cc2c(nc1CC)CCN(CCC(C)=NOC[C@H]1O[C@H](c3ccccc3)C=C[C@@H]1Oc1ccc(OC)cc1)C2: -2.03
CC(C)CON=C1C[C@@H](O)[C@@H](O)[C@@H]2[C@@H]3C(=O)N(c4ccc(F)cc4F)C(=O)[C@@H]3CC[C@H]12: 0.597
CC(C)(C)N1C(=O)[C@H]2[C@H]3[C@H](O)C=CC(=O)[C@@H]3CC[C@H]2C1=O: 0.326
CCOC(=O)[C@H](CC(C)C)NC(=O)CCC1CC(OC(=O)NCCc2ccc(F)cc2)CC2(CCCC(COC(=O)NCCC(C)C)O2)O1 (some centres not stated): 0.773
CC(C)=NO[C@H](C)c1cn([C@H](CO)Cc2ccccc2)nn1: -0.0735

Query block: Reported z-score, compound CO[C@@H]1COC(=O)[C@H](CCSC)NC(=O)CC=C[C@@H](C)COC(=O)CCC[C@H]1C : ____
Result block: -0.38

Query block: Reported z-score, compound C[C@H]1CC[C@H]2C(=O)OC(CO)CN2[C@@H]1c1ccc(Br)cc1 (some centres not stated) : ____
Result block: -2.22
